Recorded values, source paper PMC8944987.

# System: T. cruzi Dm28c epimastigotes
# experiment summary: T. cruzi epimastigotes assay (resazurin)
# Format: cell-based
# test settings: Trypanosoma cruzi; 72 h; Figure 2C; read-out: IC50, T. cruzi epimastigote growth inhibition (resazurin reduction)
experimental readout: IC50 (µM)

molecule="CC(C)=CCC/C(C)=C/CNCCNC1C2CC3CC(C2)CC1C3 (stereo not shown)" test_system="T. cruzi Dm28c epimastigotes" result=12.6

* * *

# experiment summary: Reported tissue (liver) accumulation on repeated oral dosing
# Type: in vivo
# test settings: assuming the same volume-to-mass ratio, 28-day oral dosing, 10 mg/kg, from ref 30, read-out: SQ109 liver concentration
experimental readout: concentration at 28 days

molecule="CC(C)=CCC/C(C)=C/CNCCNC1C2CC3CC(C2)CC1C3 (stereo not shown) [SQ109]" result="~6 µM"
